All values here come from paper PMC10786891.

# target_entity: T1, EsCas13d, nuclease-dead (Eubacterium siraeum, UniProt B0MS50, R295A;H300A;R849A;H854A)
# T1 sequence: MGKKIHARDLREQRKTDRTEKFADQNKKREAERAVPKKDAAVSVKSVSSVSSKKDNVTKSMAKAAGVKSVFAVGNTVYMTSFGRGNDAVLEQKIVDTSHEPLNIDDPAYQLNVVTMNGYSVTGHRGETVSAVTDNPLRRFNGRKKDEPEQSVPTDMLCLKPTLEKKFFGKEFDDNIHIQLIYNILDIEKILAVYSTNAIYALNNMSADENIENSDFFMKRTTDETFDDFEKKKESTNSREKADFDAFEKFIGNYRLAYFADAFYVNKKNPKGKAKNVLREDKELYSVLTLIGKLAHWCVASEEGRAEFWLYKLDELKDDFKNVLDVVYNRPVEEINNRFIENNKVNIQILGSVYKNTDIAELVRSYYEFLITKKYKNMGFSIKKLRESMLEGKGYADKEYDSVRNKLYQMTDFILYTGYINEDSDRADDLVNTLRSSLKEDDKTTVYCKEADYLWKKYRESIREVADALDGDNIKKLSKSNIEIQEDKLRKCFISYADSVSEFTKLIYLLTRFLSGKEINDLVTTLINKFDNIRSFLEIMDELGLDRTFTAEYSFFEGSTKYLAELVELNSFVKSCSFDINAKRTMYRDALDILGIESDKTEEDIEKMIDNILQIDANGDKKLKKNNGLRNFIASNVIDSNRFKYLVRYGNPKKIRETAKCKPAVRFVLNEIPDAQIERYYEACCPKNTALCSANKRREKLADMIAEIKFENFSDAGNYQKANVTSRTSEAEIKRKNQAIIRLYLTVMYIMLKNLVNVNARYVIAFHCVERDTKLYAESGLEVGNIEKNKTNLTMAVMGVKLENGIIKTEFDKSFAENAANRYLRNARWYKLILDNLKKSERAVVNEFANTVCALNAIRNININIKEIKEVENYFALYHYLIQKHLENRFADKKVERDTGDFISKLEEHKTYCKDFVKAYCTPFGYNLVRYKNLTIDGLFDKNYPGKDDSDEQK
# protocol: crRNA (strand 1, pre-loaded); Mg2+; 40 mM Tris-HCl pH 7.5, 150 mM NaCl, 6 mM MgCl2, 1 mM DTT, 0.1% Tween-20, 0.2 mg/ml BSA; 25 C; 10 min per concentration, then washed
# conditions_used: tags: His6-TwinStrep-SUMO cleaved; N-terminal SNAP kept (SNAP-Surface 488); label: 3' end held by stalled T7 RNA polymerase
metric_name: Kd (nM)
Answers are plain numbers, in nM.

Task: Given the binder target 3 G4U,A5G (mixed) RNA 1: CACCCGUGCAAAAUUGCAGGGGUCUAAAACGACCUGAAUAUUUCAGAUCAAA RNA 2: GGGAAUGGAUCCACAUCUACGAAUUCGUUUUUGAUCUGAAAUAUUCGUGUCUGCAGAUCGGAAGAGCACACGU , what is its reported Kd?
Output: 7.04
